Molecular target: T1, CD226 (human) (UniProt Q15762)
T1 sequence: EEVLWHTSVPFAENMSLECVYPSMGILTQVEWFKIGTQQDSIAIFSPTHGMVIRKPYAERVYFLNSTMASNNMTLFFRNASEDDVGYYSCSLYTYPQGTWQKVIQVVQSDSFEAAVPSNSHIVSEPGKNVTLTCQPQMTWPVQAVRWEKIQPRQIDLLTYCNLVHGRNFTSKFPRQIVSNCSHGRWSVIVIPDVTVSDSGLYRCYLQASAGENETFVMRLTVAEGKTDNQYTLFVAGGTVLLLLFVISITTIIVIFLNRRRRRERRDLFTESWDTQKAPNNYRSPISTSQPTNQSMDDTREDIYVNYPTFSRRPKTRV
Assay: flow cytometry, transfected cells

BINDER	MFI
CD155 A56V IgV-Fc (Fc fusion, not shown: a dimerising Fc or GST; small tags and cut ends) PGTGDVVVQAPTQVPGFLGDSVTLPCYLQVPNMEVTHVSQLTWARHGESGSMVVFHQTQGPSYSESKRLEFVAARLGAELRNASLRMFGLRVEDEGNYTCLFVTFPQGSRSVDIWL	455000
CD155 P18T, F91S, G111D IgV-Fc (Fc fusion, not shown: a dimerising Fc or GST; small tags and cut ends) PGTGDVVVQAPTQVTGFLGDSVTLPCYLQVPNMEVTHVSQLTWARHGESGSMAVFHQTQGPSYSESKRLEFVAARLGAELRNASLRMSGLRVEDEGNYTCLFVTFPQDSRSVDIWL	438000

Data credit: patent US20200040059A1
